The following compounds are shown together with reported IC50 values.
Target: SpyCas9 (Streptococcus pyogenes serotype M1, UniProt Q99ZW2)
Sequence (Q99ZW2 whole entry): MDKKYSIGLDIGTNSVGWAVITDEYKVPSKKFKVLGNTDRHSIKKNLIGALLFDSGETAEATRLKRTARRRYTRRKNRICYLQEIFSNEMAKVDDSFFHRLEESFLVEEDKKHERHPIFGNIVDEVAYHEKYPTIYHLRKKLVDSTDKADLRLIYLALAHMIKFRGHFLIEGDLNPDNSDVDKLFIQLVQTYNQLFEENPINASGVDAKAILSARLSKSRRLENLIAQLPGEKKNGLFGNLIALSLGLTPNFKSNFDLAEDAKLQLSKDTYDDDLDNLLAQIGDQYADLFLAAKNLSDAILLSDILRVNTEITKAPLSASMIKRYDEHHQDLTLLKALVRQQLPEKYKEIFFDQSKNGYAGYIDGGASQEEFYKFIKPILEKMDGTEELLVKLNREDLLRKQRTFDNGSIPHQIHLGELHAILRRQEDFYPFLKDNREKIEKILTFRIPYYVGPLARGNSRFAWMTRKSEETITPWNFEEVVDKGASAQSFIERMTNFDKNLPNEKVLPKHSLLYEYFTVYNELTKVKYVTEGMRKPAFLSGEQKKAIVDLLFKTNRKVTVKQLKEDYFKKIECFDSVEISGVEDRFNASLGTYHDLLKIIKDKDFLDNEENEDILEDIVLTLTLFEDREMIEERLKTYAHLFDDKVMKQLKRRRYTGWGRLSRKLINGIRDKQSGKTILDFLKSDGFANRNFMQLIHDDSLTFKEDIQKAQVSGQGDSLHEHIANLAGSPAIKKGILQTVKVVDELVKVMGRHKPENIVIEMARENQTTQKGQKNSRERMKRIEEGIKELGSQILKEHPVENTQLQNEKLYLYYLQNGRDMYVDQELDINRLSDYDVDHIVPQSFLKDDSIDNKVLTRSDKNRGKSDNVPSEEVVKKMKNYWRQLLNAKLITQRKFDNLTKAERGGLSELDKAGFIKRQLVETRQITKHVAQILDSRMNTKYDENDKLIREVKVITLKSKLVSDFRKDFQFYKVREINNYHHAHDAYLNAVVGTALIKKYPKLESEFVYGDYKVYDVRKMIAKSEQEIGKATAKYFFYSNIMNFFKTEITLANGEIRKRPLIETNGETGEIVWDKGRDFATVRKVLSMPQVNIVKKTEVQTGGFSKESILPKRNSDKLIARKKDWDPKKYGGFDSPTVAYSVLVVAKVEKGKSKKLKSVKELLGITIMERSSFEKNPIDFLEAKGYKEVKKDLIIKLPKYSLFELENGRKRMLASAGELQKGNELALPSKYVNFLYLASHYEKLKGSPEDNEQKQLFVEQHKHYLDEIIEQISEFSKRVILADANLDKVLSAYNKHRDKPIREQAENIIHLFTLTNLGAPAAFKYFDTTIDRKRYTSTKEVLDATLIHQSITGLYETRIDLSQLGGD
Assay: biochemical
Settings: IC50, in vitro purified enzyme assay, Spy Cas9; linear substrates (87 bp oligonucleotide or 2.5 kb linear DNA)

>>> test_value("CCCCC(CC)COC(=O)CC(C(=O)OCC(CC)CCCC)S(=O)(=O)O (centres unmarked) [Docusate]")
"20 to 50 µM"
>>> test_value("O=C(O)c1cc2ccccc2c(Cc2c(O)c(C(=O)O)cc3ccccc23)c1O [Pamoic acid]")
"10 to 20 µM"
>>> test_value("OCCOCCN1CCN(C(c2ccccc2)c2ccc(Cl)cc2)CC1 (centres unmarked) [Hydroxyzine pamoate]")
"20 to 50 µM"

In: Please give measured IC50 of the following entry: COc1cccc2c1C(=O)c1c(O)c3c(c(O)c1C2=O)C[C@@](O)(C(=O)CO)C[C@@H]3O[C@H]1C[C@H](N)[C@@H](O)[C@H](C)O1 [Epirubicin]
Out: 2 to 5 µM

In: Please give measured IC50 of the following entry: CC1(C)[C@@H](OC(=O)CCC(=O)O)CC[C@]2(C)[C@H]3C(=O)C=C4[C@@H]5C[C@@](C)(C(=O)O)CC[C@]5(C)CC[C@@]4(C)[C@]3(C)CC[C@@H]12 [Carbenoxolone]
Out: 5 to 10 µM

----------
Biological target: SpyCas9 (Streptococcus pyogenes serotype M1, UniProt Q99ZW2)
Format: cell-based
measured quantity: IC50

Consider the reported IC50 for these molecules:
>>> test_value("CC1(C)[C@@H](OC(=O)CCC(=O)O)CC[C@]2(C)[C@H]3C(=O)C=C4[C@@H]5C[C@@](C)(C(=O)O)CC[C@]5(C)CC[C@@]4(C)[C@]3(C)CC[C@@H]12")
"50 to 100 µM"
>>> test_value("COc1cccc2c1C(=O)c1c(O)c3c(c(O)c1C2=O)C[C@@](O)(C(=O)CO)C[C@@H]3O[C@H]1C[C@H](N)[C@@H](O)[C@H](C)O1 [Epirubicin]")
"6.25 to 12.5 µM"

In: Please give measured IC50 of the following entry: O=C(O)c1cc2ccccc2c(Cc2c(O)c(C(=O)O)cc3ccccc23)c1O
Out: ~400 µM

----------
The following compounds are shown together with reported IC50 values.
Biological target: SpyCas9 (Streptococcus pyogenes serotype M1, UniProt Q99ZW2)
Type: cell-based

>>> test_value("O=C(O)c1cc2ccccc2c(Cc2c(O)c(C(=O)O)cc3ccccc23)c1O")
"20 to 50 µM"

In: Please give measured IC50 of the following entry: CC1(C)[C@@H](OC(=O)CCC(=O)O)CC[C@]2(C)[C@H]3C(=O)C=C4[C@@H]5C[C@@](C)(C(=O)O)CC[C@]5(C)CC[C@@]4(C)[C@]3(C)CC[C@@H]12
Out: 20 to 50 µM

----------
Molecular target: SauCas9 (Staphylococcus aureus, UniProt J7RUA5)
Sequence (J7RUA5 1-1053): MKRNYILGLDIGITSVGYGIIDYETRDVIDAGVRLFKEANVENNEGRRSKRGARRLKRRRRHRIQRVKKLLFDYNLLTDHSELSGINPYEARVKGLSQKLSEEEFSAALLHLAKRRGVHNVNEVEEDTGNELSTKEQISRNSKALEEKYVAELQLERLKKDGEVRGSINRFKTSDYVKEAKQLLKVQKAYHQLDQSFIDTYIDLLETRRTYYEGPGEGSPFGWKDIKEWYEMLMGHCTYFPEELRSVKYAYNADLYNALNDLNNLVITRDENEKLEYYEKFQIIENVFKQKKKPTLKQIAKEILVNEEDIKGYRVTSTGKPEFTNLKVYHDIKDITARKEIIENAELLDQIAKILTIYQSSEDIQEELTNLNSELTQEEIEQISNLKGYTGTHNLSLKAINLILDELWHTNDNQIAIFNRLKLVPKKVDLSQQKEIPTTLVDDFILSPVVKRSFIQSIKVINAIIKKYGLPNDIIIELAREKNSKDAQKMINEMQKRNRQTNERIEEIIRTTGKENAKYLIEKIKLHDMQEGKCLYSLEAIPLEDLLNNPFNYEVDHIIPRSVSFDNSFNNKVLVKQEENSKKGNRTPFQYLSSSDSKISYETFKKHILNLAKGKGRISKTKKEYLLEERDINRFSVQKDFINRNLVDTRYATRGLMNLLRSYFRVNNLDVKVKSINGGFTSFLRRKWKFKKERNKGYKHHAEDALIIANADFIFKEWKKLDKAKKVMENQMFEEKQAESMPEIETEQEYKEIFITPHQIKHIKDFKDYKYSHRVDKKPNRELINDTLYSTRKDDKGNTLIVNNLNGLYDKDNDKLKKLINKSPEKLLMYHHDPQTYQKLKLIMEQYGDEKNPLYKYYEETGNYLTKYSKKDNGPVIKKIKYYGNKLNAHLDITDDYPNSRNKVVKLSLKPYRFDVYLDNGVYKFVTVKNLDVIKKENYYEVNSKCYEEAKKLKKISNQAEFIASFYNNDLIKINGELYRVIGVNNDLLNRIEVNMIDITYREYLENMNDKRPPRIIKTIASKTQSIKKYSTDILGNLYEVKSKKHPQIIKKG
Assay: In vitro purified enzyme activity assay for SauCas9
Type: biochemical
Details: read-out: IC50, in vitro purified enzyme assay; Sau Cas9; linear substrates (87 bp oligonucleotide)
pIC50: −log10 of the molar value.
The following molecules are shown together with reported pIC50 values.

>>> test_value("Cc1ccc(S(=O)(=O)N2CC[C@@H]3[C@H](CO)Nc4ccc(-c5ccccc5F)cc4[C@@H]32)cc1")
"4.70 to 5.00"

In: Please give measured pIC50 of the following entry: CN[C@H]1C(=O)N[C@@H]2Cc3ccc(cc3)Oc3cc4cc(c3O[C@@H]3O[C@H](C(=O)O)[C@@H](O)[C@H](O)[C@H]3NC(=O)CCCCCCCCC(C)C)Oc3ccc(cc3Cl)[C@@H](O)[C@@H]3NC(=O)[C@H](NC(=O)[C@@H]4NC(=O)[C@@H](NC2=O)c2cc(cc(O)c2Cl)Oc2cc1ccc2O)c1ccc(O)c(c1)-c1c(O[C@H]2O[C@H](CO)[C@@H](O)[C@H](O)[C@@H]2O)cc(O)cc1[C@@H](C(=O)NCCCN(C)C)NC3=O
Out: ~4.60

----------
Target: SpyCas9 (Streptococcus pyogenes serotype M1, UniProt Q99ZW2)
Assay: biochemical
Conditions: IC50, in vitro purified enzyme assay, Spy Cas9; supercoil (circular) plasmid substrate pcDNA3.1/CT-GFP
measured quantity: IC50

>>> test_value("COc1cccc2c1C(=O)c1c(O)c3c(c(O)c1C2=O)C[C@@](O)(C(=O)CO)C[C@@H]3O[C@H]1C[C@H](N)[C@@H](O)[C@H](C)O1 [Epirubicin]")
"2 to 5 µM"
>>> test_value("O=C(O)c1cc2ccccc2c(Cc2c(O)c(C(=O)O)cc3ccccc23)c1O")
"400 to 600 µM"
>>> test_value("CCCCC(CC)COC(=O)CC(C(=O)OCC(CC)CCCC)S(=O)(=O)O (centres unmarked) [Docusate]")
"10 to 20 µM"
>>> test_value("OCCOCCN1CCN(C(c2ccccc2)c2ccc(Cl)cc2)CC1 (centres unmarked) [Hydroxyzine pamoate]")
"> 200 µM"

Below: the item to evaluate.
In: Please give measured IC50 of the following entry: CC1(C)[C@@H](OC(=O)CCC(=O)O)CC[C@]2(C)[C@H]3C(=O)C=C4[C@@H]5C[C@@](C)(C(=O)O)CC[C@]5(C)CC[C@@]4(C)[C@]3(C)CC[C@@H]12
Out: ~100 µM

----------
The following molecules are shown together with reported pIC50 values.
Molecular target: SauCas9 (Staphylococcus aureus, UniProt J7RUA5)
Experiment: In vitro purified enzyme activity assay for SauCas9
Format: biochemical
Details: IC50, in vitro purified enzyme assay, Sau Cas9; linear substrates (87 bp oligonucleotide)
pIC50: −log10 of the molar value.

Consider the reported pIC50 for these molecules:
>>> test_value("O=C(O)c1cc2ccccc2c(Cc2c(O)c(C(=O)O)cc3ccccc23)c1O")
"4.30 to 4.60"
>>> test_value("CCCCC(CC)COC(=O)CC(C(=O)OCC(CC)CCCC)S(=O)(=O)O (stereo not shown) [Docusate]")
"4.60 to 4.90"
>>> test_value("CC1(C)[C@@H](OC(=O)CCC(=O)O)CC[C@]2(C)[C@H]3C(=O)C=C4[C@@H]5C[C@@](C)(C(=O)O)CC[C@]5(C)CC[C@@]4(C)[C@]3(C)CC[C@@H]12")
"4.30 to 4.60"

In: Please give measured pIC50 of the following entry: COc1cccc2c1C(=O)c1c(O)c3c(c(O)c1C2=O)C[C@@](O)(C(=O)CO)C[C@@H]3O[C@H]1C[C@H](N)[C@@H](O)[C@H](C)O1 [Epirubicin]
Out: 4.90 to 5.20

----------
Target: SauCas9 (Staphylococcus aureus, UniProt J7RUA5)
Sequence (J7RUA5 1-1053): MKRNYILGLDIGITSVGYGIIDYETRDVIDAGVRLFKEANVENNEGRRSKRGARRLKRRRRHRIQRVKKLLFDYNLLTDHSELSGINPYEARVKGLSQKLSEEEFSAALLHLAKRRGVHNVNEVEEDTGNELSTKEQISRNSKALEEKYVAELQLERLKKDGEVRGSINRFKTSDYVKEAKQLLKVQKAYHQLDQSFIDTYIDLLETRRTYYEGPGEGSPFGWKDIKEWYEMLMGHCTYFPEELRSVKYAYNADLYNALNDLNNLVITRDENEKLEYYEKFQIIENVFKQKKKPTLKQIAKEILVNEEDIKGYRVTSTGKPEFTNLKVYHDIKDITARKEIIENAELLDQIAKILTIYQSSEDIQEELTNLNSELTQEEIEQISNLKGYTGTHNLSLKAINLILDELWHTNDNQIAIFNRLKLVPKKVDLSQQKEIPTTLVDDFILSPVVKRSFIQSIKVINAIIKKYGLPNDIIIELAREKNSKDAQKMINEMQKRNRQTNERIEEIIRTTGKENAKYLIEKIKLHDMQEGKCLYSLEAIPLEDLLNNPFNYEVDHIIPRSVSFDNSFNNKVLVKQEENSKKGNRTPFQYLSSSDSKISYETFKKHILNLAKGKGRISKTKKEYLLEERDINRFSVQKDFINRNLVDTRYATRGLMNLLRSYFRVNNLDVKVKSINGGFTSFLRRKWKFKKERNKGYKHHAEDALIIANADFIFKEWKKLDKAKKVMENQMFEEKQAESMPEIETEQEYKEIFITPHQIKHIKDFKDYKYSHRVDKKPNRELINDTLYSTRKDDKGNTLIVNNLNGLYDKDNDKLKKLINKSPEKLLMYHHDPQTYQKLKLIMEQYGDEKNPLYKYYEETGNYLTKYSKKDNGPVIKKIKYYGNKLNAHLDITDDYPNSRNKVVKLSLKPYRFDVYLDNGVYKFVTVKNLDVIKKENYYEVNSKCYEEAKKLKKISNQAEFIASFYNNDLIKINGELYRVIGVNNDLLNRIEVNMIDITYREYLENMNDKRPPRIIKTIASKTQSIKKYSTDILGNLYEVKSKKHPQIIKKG
Test: In vitro purified enzyme activity assay for SauCas9
Type: biochemical
Conditions: IC50, in vitro purified enzyme assay, Sau Cas9; supercoil (circular) plasmid substrate
pIC50: −log10 of the molar value.
measured quantity: pIC50

In: Please give measured pIC50 of the following entry: O=C(O)c1cc2ccccc2c(Cc2c(O)c(C(=O)O)cc3ccccc23)c1O
Out: 3.00 to 3.30

In: Please give measured pIC50 of the following entry: COc1cccc2c1C(=O)c1c(O)c3c(c(O)c1C2=O)C[C@@](O)(C(=O)CO)C[C@@H]3O[C@H]1C[C@H](N)[C@@H](O)[C@H](C)O1 [Epirubicin]
Out: 5.20 to 5.50

In: Please give measured pIC50 of the following entry: CC1(C)[C@@H](OC(=O)CCC(=O)O)CC[C@]2(C)[C@H]3C(=O)C=C4[C@@H]5C[C@@](C)(C(=O)O)CC[C@]5(C)CC[C@@]4(C)[C@]3(C)CC[C@@H]12
Out: 3.70 to 4.00

In: Please give measured pIC50 of the following entry: CCCCC(CC)COC(=O)CC(C(=O)OCC(CC)CCCC)S(=O)(=O)O (stereo not shown) [Docusate]
Out: 4.30 to 4.60
